These measurements were taken from PubChem BioAssay (NCI).

- Test system: MDA-MB-231 breast
- Experiment Description: NCI-60 one-dose screen, 48 h
- Condition Details: 10 µM unless noted
This is part of a sample that, as a whole, favours compounds with a hit. Of some 83,000 tested, about 20% had one in any assay. Calls of active or inactive are those of the source. How the source made its calls: active means growth percent below 10; inactive means the rest.
Result category, one only: active, inactive

Prompt line: // param item: Nc1c(C(=O)Nc2ccncc2)sc2nc3c(cc12)CCCCC3 ; yields the recorded call
Response line: inactive

Prompt line: For CCN(CC)c1ccc(/C=N\NC(=O)c2cccc(Nc3ccnc(C(F)(F)F)c3)c2)c(O)c1 , which call appears in the assay record?
Response line: inactive

Prompt line: Dear all, I need the recorded test outcome for CCOc1ccc(/C=N\N=C\c2ccc(OCC)cc2)cc1 , thank you.
Response line: inactive

Prompt line: Please share the test call associated with Cc1cc(C(=O)Nc2cc(Nc3ncccc3-c3ncnc4nc[nH]c34)ccc2F)cc(C(F)(F)F)c1 .
Response line: inactive

Prompt line: Write down the call the test reported for this molecule. Item: COc1ccc(C2=NN(C(=O)c3cc(OC)c(OC)c(OC)c3)C(c3ccc(N(C)C)cc3)C2)cc1 (stereo not drawn)
Response line: active

Prompt line: # outcome recorded in this test, key = O=C(/C=C/c1ccc(Br)cc1)c1ccc(-n2cc(CN3CCN(c4cc5c(cc4F)c(=O)c(C(=O)O)cn5C4CC4)CC3)nn2)cc1
Response line: inactive

Prompt line: Could you check what this test reported for CC(C)=CC(=O)N[C@@H]1CC2CCC3C(CC[C@@]4(C)C3CC[C@@H]4C(C)N(C)C)[C@@]2(C)C[C@@H]1O (stereo partly drawn) ?
Response line: inactive

Prompt line: // param item: O=C(c1ccc(F)c(Cl)c1)N1c2ccccc2Sc2ccccc21 ; yields the recorded call
Response line: inactive
